# TEST SYSTEM: EZH2 (Homo sapiens)
# Sequence (Q15910 whole entry, species assumed): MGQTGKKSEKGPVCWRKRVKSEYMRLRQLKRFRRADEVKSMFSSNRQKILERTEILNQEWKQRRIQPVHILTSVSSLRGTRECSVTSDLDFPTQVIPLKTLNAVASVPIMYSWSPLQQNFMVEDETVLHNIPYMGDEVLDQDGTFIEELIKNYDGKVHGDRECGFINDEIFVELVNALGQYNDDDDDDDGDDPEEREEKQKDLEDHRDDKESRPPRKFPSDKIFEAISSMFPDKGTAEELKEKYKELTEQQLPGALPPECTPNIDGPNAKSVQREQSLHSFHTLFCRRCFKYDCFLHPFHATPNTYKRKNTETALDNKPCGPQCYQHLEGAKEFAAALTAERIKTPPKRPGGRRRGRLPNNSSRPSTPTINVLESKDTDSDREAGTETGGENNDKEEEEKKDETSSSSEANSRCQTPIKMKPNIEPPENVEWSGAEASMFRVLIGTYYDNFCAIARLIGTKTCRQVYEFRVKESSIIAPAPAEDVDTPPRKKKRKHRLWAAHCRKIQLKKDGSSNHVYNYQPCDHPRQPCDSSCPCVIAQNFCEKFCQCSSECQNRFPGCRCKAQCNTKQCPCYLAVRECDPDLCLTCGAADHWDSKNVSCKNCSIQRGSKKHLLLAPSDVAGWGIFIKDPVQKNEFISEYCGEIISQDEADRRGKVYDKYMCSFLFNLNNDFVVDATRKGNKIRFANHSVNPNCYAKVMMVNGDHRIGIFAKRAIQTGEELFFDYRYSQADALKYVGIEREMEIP
# Sequence (O75530 whole entry partner, species assumed): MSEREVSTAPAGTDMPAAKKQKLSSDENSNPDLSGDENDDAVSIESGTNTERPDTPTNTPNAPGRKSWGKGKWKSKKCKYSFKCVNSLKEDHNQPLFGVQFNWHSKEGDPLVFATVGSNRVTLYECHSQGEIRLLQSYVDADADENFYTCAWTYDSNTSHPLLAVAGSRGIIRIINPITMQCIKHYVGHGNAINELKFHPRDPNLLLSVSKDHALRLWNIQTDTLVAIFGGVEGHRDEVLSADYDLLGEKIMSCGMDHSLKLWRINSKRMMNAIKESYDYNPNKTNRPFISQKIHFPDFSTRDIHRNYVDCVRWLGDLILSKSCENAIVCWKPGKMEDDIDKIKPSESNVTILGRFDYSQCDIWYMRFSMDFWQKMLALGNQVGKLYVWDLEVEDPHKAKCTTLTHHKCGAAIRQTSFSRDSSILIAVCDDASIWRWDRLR
# Sequence (Q15022 whole entry partner, species assumed): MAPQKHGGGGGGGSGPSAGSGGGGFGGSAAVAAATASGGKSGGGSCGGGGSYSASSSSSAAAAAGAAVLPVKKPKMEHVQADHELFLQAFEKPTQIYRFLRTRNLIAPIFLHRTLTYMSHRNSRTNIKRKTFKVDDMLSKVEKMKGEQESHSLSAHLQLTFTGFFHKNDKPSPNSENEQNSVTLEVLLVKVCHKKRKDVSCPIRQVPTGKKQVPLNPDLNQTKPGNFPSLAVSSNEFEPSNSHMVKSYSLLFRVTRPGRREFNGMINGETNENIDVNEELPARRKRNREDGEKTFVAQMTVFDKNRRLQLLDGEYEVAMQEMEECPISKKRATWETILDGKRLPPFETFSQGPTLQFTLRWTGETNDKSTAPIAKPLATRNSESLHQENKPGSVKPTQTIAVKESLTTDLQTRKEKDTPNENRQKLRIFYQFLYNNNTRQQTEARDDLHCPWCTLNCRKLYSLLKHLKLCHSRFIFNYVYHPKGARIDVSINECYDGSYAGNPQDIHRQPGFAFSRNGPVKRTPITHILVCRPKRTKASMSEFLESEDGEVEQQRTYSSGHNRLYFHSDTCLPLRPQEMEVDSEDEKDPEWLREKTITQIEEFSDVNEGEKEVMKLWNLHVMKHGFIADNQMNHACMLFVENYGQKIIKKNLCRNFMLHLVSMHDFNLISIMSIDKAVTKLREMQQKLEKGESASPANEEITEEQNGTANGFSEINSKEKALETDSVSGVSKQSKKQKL
# PROTOCOL SUMMARY: AlphaLISA enzyme activity inhibition, EZH2
# Type: biochemical
# TEST PARAMETERS: 5nM test substance
OBSERVABLE: inhibition at 0.005 µM (%)

CSc1cc(C)[nH]c(=O)c1CNC(=O)c1cc(-c2ccc(N3C[C@@H](C)O[C@@H](C)C3)nc2)c2c(c1C)OC(C)([C@H]1CC[C@H](N(C)CCCC(F)(F)F)CC1)O2 (some centres unmarked) [Compound 113]: 96.7
COCCN(C)[C@H]1CC[C@H](C2(C)Oc3c(-c4ccc(N5C[C@@H](C)O[C@@H](C)C5)nc4)cc(C(=O)NCc4c(SC)cc(C)[nH]c4=O)c(C)c3O2)CC1 (some centres unmarked) [Compound 24]: 98.6
CSc1cc(C)[nH]c(=O)c1CNC(=O)c1cc(-c2cnc(N(C)C)nc2)c2c(c1C)OC(C)([C@H]1CC[C@H](N(C)CC(F)(F)F)CC1)O2 (relative stereo) [Compound 22]: 81
CSc1cc(C)[nH]c(=O)c1CNC(=O)c1cc(-c2ccc(N3C[C@@H](C)O[C@@H](C)C3)nc2)c2c(c1C)OC(C)(C1CCN(CC(F)F)CC1)O2 (single isomer, unassigned) [Compound 47]: 94.5
CSc1cc(C)[nH]c(=O)c1CNC(=O)c1cc(-c2ccc3c(ccn3C)c2)c2c(c1C)OC(C)([C@H]1CC[C@H](N(C)C)CC1)O2 (relative stereo) [Compound 7]: 96

====

Entries annotated with measured inhibition at 1 µM
# Tested on: SW-13 cells
# PROTOCOL SUMMARY: Cancer cell proliferation inhibition (Cell Counting Kit-8), adrenal cancer cell line
# Type: cell-based
# TEST PARAMETERS: Homo sapiens, SW13, 264 h, 1000 nM, cultured seven to 11 days; read-out: % inhibition rate SW-13

Consider the worked cases shown below.
CSc1cc(C)[nH]c(=O)c1CNC(=O)c1cc(-c2cnc(N3CCOCC3)nc2)c2c(c1C)OC(C)(C1CCN(CC(F)(F)F)CC1)O2 (centres unmarked) [Compound 68]: 30 to 70%
CSc1cc(C)[nH]c(=O)c1CNC(=O)c1cc(-c2ccc(N3C[C@@H](C)O[C@@H](C)C3)nc2)c2c(c1C)OC(C)(C1CCN(CCCC(F)(F)F)CC1)O2 (single isomer, unassigned): 30 to 70%
CSc1cc(C)[nH]c(=O)c1CNC(=O)c1cc(-c2ccc(N3C[C@@H](C)O[C@@H](C)C3)nc2)c2c(c1C)OC(C)([C@H]1CC[C@H](N(C)C)CC1)O2 (some centres unmarked): 30 to 70%
CCN1CCC(C2(C)Oc3c(-c4ccc(N5C[C@@H](C)O[C@@H](C)C5)nc4)cc(C(=O)NCc4c(SC)cc(C)[nH]c4=O)c(C)c3O2)CC1 (single isomer, unassigned): 30 to 70%

Prompt line: Checklist item: inhibition at 1 µM tested on SW-13 cells, entry CSc1cc(C)[nH]c(=O)c1CNC(=O)c1cc(-c2ccc3occc3c2)c2c(c1C)OC(C)(C1CCN(CC(F)F)CC1)O2 (centres unmarked) , value?
Response line: ≤ 30%

Prompt line: Another: CCN(C)[C@H]1CC[C@H](C2(C)Oc3c(-c4ccc(N5C[C@@H](C)O[C@@H](C)C5)nc4)cc(C(=O)NCc4c(SC)cc(C)[nH]c4=O)c(C)c3O2)CC1 (some centres unmarked)
Response line: 30 to 70%

Prompt line: Another: COCCN(C)[C@H]1CC[C@H](C2(C)Oc3c(-c4ccc(OC)nc4)cc(C(=O)NCc4c(SC)cc(C)[nH]c4=O)c(C)c3O2)CC1 (relative stereo)
Response line: 30 to 70%

Prompt line: Another: COc1ccc(-c2cc(C(=O)NCc3c(SC)cc(C)[nH]c3=O)c(C)c3c2OC(C)(C2CCN(CC(F)(F)F)CC2)O3)cn1 (centres unmarked)
Response line: ≤ 30%

Prompt line: Another: CCN1CCN(c2ncc(-c3cc(C(=O)NCc4c(SC)cc(C)[nH]c4=O)c(C)c4c3OC(C)(C3CCN(CC(F)(F)F)CC3)O4)cn2)CC1 (centres unmarked) [Compound 75]
Response line: 30 to 70%

====

# Tested on: Lovo cells
# PROTOCOL SUMMARY: Cancer cell proliferation inhibition (Cell Counting Kit-8), colorectal cancer cell line
# Format: cell-based
# TEST PARAMETERS: Homo sapiens, LoVo, 264 h, 1000 nM, cultured seven to 11 days; read-out: % inhibition rate LoVo
# Protocol: In addition, as one example of solid cancer in which an overexpression of EZH2 and a consequent disease association therebetween is reported, a proliferation inhibitory activity of the 1,3-benzodioxole derivative compounds represented by chemical formula I of the present invention was evaluated in Lovo cells as a colorectal cancer cell line, SW-13 cells as an adrenal cancer cell line, MIA-PaCa-2 cells as a pancreatic cancer cell line, and NCI-H1299 cells as a lung cancer cell line. […]
Counter-ions that a name gives are not always drawn.
OBSERVABLE: inhibition at 1 µM

Consider the worked cases shown below.
COc1ccc(F)cc1-c1cc(C(=O)NCc2c(SC)cc(C)[nH]c2=O)c(C)c2c1OC(C)([C@H]1CC[C@H](N(C)C)CC1)O2 (relative stereo): 30 to 70%
CSc1cc(C)[nH]c(=O)c1CNC(=O)c1cc(-c2ccc(N3C[C@@H](C)O[C@@H](C)C3)nc2)c2c(c1C)OC(C)([C@H]1CC[C@H](N3CC(CC(F)(F)F)C3)CC1)O2 (stereo partly drawn): ≥ 70%
CSc1cc(C)[nH]c(=O)c1CNC(=O)c1cc(-c2ccc(N3C[C@@H](C)O[C@@H](C)C3)nc2)c2c(c1C)OC(C)([C@H]1CC[C@H](N(C)C)CC1)O2 (stereo partly drawn): 30 to 70%
CSc1cc(C)[nH]c(=O)c1CNC(=O)c1cc(-c2ccc(N3CCSCC3)nc2)c2c(c1C)OC(C)([C@H]1CC[C@H](N(C)C)CC1)O2 (relative stereo): ≥ 70%
CCN(C)c1ccc(-c2cc(C(=O)NCc3c(SC)cc(C)[nH]c3=O)c(C)c3c2OC(C)(C2CCN(CC(F)(F)F)CC2)O3)cn1 (single isomer, unassigned): ≥ 70%

Prompt line: # get_value(readout='inhibition at 1 µM', item= CCN(C)c1ccc(-c2cc(C(=O)NCc3c(SC)cc(C)[nH]c3=O)c(C)c3c2OC(C)(C2CCN(CC(F)F)CC2)O3)cn1 (single isomer, unassigned) )
Response line: ≥ 70%

Prompt line: Another: COCCN(C)[C@H]1CC[C@H](C2(C)Oc3c(-c4cnc(N5C[C@@H](C)O[C@@H](C)C5)nc4)cc(C(=O)NCc4c(SC)cc(C)[nH]c4=O)c(C)c3O2)CC1 (stereo partly drawn)
Response line: ≥ 70%

Prompt line: Another: CCN1CCC(C2(C)Oc3c(-c4ccc(N5CCOCC5)nc4)cc(C(=O)NCc4c(SC)cc(C)[nH]c4=O)c(C)c3O2)CC1 (single isomer, unassigned)
Response line: 30 to 70%

Prompt line: Another: CSc1cc(C)[nH]c(=O)c1CNC(=O)c1cc(-c2ccc(N3C[C@@H](C)O[C@@H](C)C3)nc2)c2c(c1C)OC(C)([C@H]1CC[C@H](N(C)CCCC(F)(F)F)CC1)O2 (stereo partly drawn)
Response line: ≥ 70%

Prompt line: Another: CSc1cc(C)[nH]c(=O)c1CNC(=O)c1cc(-c2ccc(N3C[C@@H](C)O[C@@H](C)C3)nc2)c2c(c1C)OC(C)([C@H]1CC[C@H](N)CC1)O2 (stereo partly drawn) [Compound 100, hydrochloride]
Response line: ≤ 30%

Prompt line: Another: CSc1cc(C)[nH]c(=O)c1CNC(=O)c1cc(-c2ccc(N3C[C@@H](C)O[C@@H](C)C3)nc2)c2c(c1C)OC(C)([C@H]1CC[C@H](N3CC(OCC(F)F)C3)CC1)O2 (stereo partly drawn)
Response line: ≥ 70%

Prompt line: Another: CSc1cc(C)[nH]c(=O)c1CNC(=O)c1cc(-c2cnc(N3CCOCC3)nc2)c2c(c1C)OC(C)(C1CCN(CC(F)(F)F)CC1)O2 (stereo not drawn) [Compound 68]
Response line: ≥ 70%

Prompt line: Another: CSc1cc(C)[nH]c(=O)c1CNC(=O)c1cc(-c2cnc(N3CCCCC3)nc2)c2c(c1C)OC(C)([C@H]1CC[C@H](N(C)CC(F)(F)F)CC1)O2 (relative stereo)
Response line: ≥ 70%

Prompt line: Another: CSc1cc(C)[nH]c(=O)c1CNC(=O)c1cc(-c2ccc(N3C[C@@H](C)O[C@@H](C)C3)nc2)c2c(c1C)OC(C)(C1CCN(CC(F)F)CC1)O2 (single isomer, unassigned) [Compound 47]
Response line: ≥ 70%

Prompt line: Another: CCN1CCC(C2(C)Oc3c(-c4cnc(N5CCOCC5)nc4)cc(C(=O)NCc4c(SC)cc(C)[nH]c4=O)c(C)c3O2)CC1 (single isomer, unassigned)
Response line: 30 to 70%
